# system: T1, sCD4-HRP (Research Diagnostics Inc.) (UniProt P01730 26-396, limits assumed)
# T1 construct: extracellular domain
# assay text: microtiter assay, increasing concentrations of plate-bound P11, sCD4-HRP, non-linear curve fit
readout type: pKd
Keep in mind that pKd stands for -log10 of concentration in molar terms.

*Q* Endpoint output: pKd of GPNGQTCAEKNKCVGHIPGC (Chemically synthesized (GenScript); also called P11k) [P11, C-terminal peptide of Salp15 (amino acids 95-114)] . Value?
*A* 7.30
